The origin of these recorded values is patent US20060079453A1.

Reported IC50 values follow for various substances
# TARGET ENTITY: HLA-DR DRB5*0101 (DR51) (Homo sapiens, UniProt P01903+Q30154)
# ASSAY INFO: biochemical
# Type: binding
# APPLIED CONDITIONS: DRB5 *0101
No end group written: not given here.
Give the value in µM but do not write µM after it.

- VQQLLMGALTVTCPL: 7.15
- IDGVNHQHLPARRAE: 12.6
- Ac-NPDAENWNSQFEILEDAA: 50
- VCGERGFFYTPKTRR: 0.092

query: I'd like to know its IC50. The substance in question is PHPLYNMSLLKHQSL
result: 1.9
